# Lookup of reported IC50 keyed by entry
- subject-of-test: IDO1 (Homo sapiens (Human), UniProt P14902)
- assay-info: IDO1 Cellular Assay in Hela Cells Stimulated with IFNγ
- Format: cell-based
- particulars: about 48 hours, read-out: IDO1 HELA Cell Assay, IC50
- Sequence (P14902 whole entry): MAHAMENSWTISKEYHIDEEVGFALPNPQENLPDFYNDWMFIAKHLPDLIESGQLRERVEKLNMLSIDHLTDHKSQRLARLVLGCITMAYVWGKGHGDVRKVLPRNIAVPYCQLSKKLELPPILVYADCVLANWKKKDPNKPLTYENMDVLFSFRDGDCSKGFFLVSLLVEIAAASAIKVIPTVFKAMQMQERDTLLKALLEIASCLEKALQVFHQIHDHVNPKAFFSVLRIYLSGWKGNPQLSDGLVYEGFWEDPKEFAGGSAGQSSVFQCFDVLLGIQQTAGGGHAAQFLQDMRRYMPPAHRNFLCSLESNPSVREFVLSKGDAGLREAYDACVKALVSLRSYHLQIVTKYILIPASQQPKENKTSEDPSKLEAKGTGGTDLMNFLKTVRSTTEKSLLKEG
readout-name: IC50 (µM)

CS(=N)(=O)N1CC(CNc2nonc2/C(=N\O)N[C@@H]2Cc3ccc(F)cc32)C1 (single isomer, unassigned) [Example 71]	0.0723
CS(=N)(=O)CCC(O)CNc1nonc1/C(=N\O)N[C@@H]1Cc2ccc(F)cc21 (single isomer, unassigned) [Example 80]	0.0685
CS(=N)(=O)CC12CC(Nc3nonc3/C(=N\O)N[C@@H]3Cc4ccc(F)cc43)(C1)C2 (single isomer, unassigned) [Example 82]	0.082
CN=S(C)(=O)NCCNc1nonc1/C(=N\O)N[C@H]1Cc2ccc(F)cc21 (single isomer, unassigned) [Example 67]	0.14

* * *

# Lookup of reported pIC50 keyed by entry
- subject-of-test: IDO1 (Homo sapiens (Human), UniProt P14902)
- assay-info: IDO1 Enzyme Assay
- Assay type: biochemical
- particulars: HIS-tagged recombinant IDO1, fluorescence readout
- Sequence (P14902 whole entry, species assumed): as the sequence (P14902 whole entry) above
pIC50: −log10 of the molar value.
readout-name: pIC50

N=S1(=O)CC(CNc2nonc2/C(=N/O)N[C@H]2Cc3ccc(F)cc32)C1 (single isomer, unassigned) [Example 6]	7.29
N=S1(=O)CCC1CNc1nonc1/C(=N/O)N[C@H]1Cc2ccc(F)cc21 (single isomer, unassigned) [Example 22]	6.86
CS(=N)(=O)N1CCO[C@@H](CNc2nonc2/C(=N\O)N[C@H]2Cc3ccc(F)cc32)C1 (single isomer, unassigned) [Example 59]	6.92
CS(=N)(=O)CC(=O)N1CC(Oc2nonc2/C(=N/O)N[C@H]2Cc3ccc(F)cc32)C1 (single isomer, unassigned) [Example 50]	6.95
CS(=N)(=O)N1CCC(Nc2nonc2/C(=N/O)N[C@H]2Cc3ccc(F)cc32)CC1 (single isomer, unassigned) [Example 18]	7.17
N=S(=O)(CCNc1nonc1/C(=N\O)N[C@@H]1Cc2ccc(F)cc21)C1CC1 (single isomer, unassigned) [Example 69]	7.19

* * *

- subject-of-test: IDO1 (Homo sapiens (Human), UniProt P14902)
- assay-info: IDO1 Enzyme Assay
- Format: biochemical
- particulars: HIS-tagged recombinant IDO1, fluorescence readout
# Lookup of reported IC50 keyed by entry
readout-name: IC50 (µM)

CS(=O)(CCNc1nonc1/C(=N/O)N[C@H]1Cc2ccc(F)cc21)=NC#N (stereo partly shown) [Example 17]	0.0647
CS(=N)(=O)CCNC(=O)CNc1nonc1/C(=N/O)N[C@H]1Cc2ccc(F)cc21 (single isomer, unassigned) [Example 14]	0.0638
CS(=N)(=O)CC(O)CNc1nonc1/C(=N/O)N[C@H]1Cc2ccc(F)cc21 (single isomer, unassigned) [Example 27]	0.0433
CS(=N)(=O)CC(O)CNc1nonc1/C(=N/O)N[C@H]1Cc2ccc(F)cc21 (single isomer, unassigned) [Example 26]	0.0537

* * *

- subject-of-test: UniProtKB P14902
- assay-info: IDO1 Cellular Assay in Hela Cells Stimulated with IFNγ
- Assay type: cell-based
- particulars: about 48 hours, read-out: IDO1 HELA Cell Assay, IC50
pIC50: −log10 of the molar value.
readout-name: pIC50

CS(=N)(=O)NCCNc1nonc1/C(=N/O)N[C@H]1Cc2ccc(F)cc21 (stereo partly shown)	7.56
CS(=N)(=O)CC(O)CNc1nonc1/C(=N/O)N[C@H]1Cc2ccc(F)cc21 (single isomer, unassigned) [Example 28]	6.96
C[S@](=N)(=O)CCNc1nonc1/C(=N/O)N[C@H]1Cc2ccc(F)cc21	7.25
CS(=N)(=O)CCOCCNc1nonc1/C(=N/O)N[C@H]1Cc2ccc(F)cc21 (single isomer, unassigned) [Example 48]	6.84

* * *

- subject-of-test: IDO1 (Homo sapiens (Human))
- assay-info: IDO1 Enzyme Assay
- Format: biochemical
- particulars: HIS-tagged recombinant IDO1, fluorescence readout
readout-name: IC50 (nM)

C[S@](=N)(=O)C1CC(Nc2nonc2/C(=N\O)N[C@@H]2Cc3ccc(F)cc32)C1 (single isomer, unassigned) [Example 72]	49.5
N=S1(=O)CCC1CNc1nonc1/C(=N/O)N[C@H]1Cc2ccc(F)cc21 (single isomer, unassigned) [Example 23]	143
CS(=N)(=O)CCCCNc1nonc1/C(=N/O)N[C@H]1Cc2ccc(F)cc21 (single isomer, unassigned) [Example 39]	50.8
CS(=N)(=O)CCCNc1nonc1/C(=N/O)N[C@H]1Cc2ccc(F)cc21 (single isomer, unassigned) [Example 24]	35.4
CS(=N)(=O)CCOCCNc1nonc1/C(=N/O)N[C@H]1Cc2ccc(F)cc21 (single isomer, unassigned) [Example 47]	154
CS(=N)(=O)N1CCO[C@@H](CNc2nonc2/C(=N\O)N[C@H]2Cc3ccc(F)cc32)C1 (single isomer, unassigned) [Example 60]	234

* * *

- subject-of-test: IDO1 (Homo sapiens (Human), UniProt P14902)
- assay-info: IDO1 Enzyme Assay
- Assay type: biochemical
- particulars: HIS-tagged recombinant IDO1, fluorescence readout
pIC50: −log10 of the molar value.
readout-name: pIC50

CS(=N)(=O)CC(=O)N1CC(Oc2nonc2/C(=N/O)N[C@H]2Cc3ccc(F)cc32)C1 (single isomer, unassigned) [Example 49]	6.95
C[S@@](=N)(=O)CCCOc1nonc1/C(=N/O)NC1Cc2ccc(F)cc21 (single isomer, unassigned) [Example 31]	6.67
CS(=O)(CCNc1nonc1/C(=N/O)N[C@H]1Cc2ccc(F)cc21)=NC(N)=O (stereo partly drawn) [Example 16]	7.26
CS(=N)(=O)N[C@H]1C[C@@H](Oc2nonc2/C(=N\O)N[C@@H]2Cc3ccc(F)cc32)C1 (single isomer, unassigned) [Example 62]	6.83
CC(O)CS(=N)(=O)CCNc1nonc1/C(=N\O)N[C@@H]1Cc2ccc(F)cc21 (single isomer, unassigned) [Example 85]	7.31
CS(=N)(=O)N1CCO[C@@H](CNc2nonc2/C(=N\O)N[C@@H]2Cc3ccc(F)cc32)C1 (single isomer, unassigned) [Example 64]	7.08

* * *

# Lookup of reported pIC50 keyed by entry
- subject-of-test: IDO1 (Homo sapiens (Human), UniProt P14902)
- assay-info: IDO1 Cellular Assay in Hela Cells Stimulated with IFNγ
- Type: cell-based
- particulars: about 48 hours, read-out: IDO1 HELA Cell Assay, IC50
pIC50: −log10 of the molar value.
readout-name: pIC50

CS(=O)(CCNc1nonc1/C(=N\O)N[C@H]1Cc2ccc(F)cc21)=NCCO (single isomer, unassigned) [Example 58]	6.91
CS(=N)(=O)N1CCO[C@@H](CNc2nonc2/C(=N\O)N[C@H]2Cc3ccc(F)cc32)C1 (single isomer, unassigned) [Example 59]	6.89
N=S1(=O)CC(CNc2nonc2/C(=N/O)N[C@H]2Cc3ccc(F)cc32)C1 (single isomer, unassigned) [Example 6]	7.04
CN=S(C)(=O)CCNC(=O)CNc1nonc1/C(=N/O)N[C@H]1Cc2ccc(F)cc21 (stereo partly shown)	6.70
N=S1(=O)CC(Nc2nonc2/C(=N/O)N[C@H]2Cc3ccc(F)cc32)C1 (single isomer, unassigned) [Example 3]	6.96
CS(=N)(=O)CC(=O)N1CC(Oc2nonc2/C(=N/O)N[C@H]2Cc3ccc(F)cc32)C1 (single isomer, unassigned) [Example 50]	6.82
C[S@](=N)(=O)C1CC(Nc2nonc2/C(=N\O)N[C@@H]2Cc3ccc(F)cc32)C1 (single isomer, unassigned) [Example 73]	7.07
CS(=N)(=O)CCCCNc1nonc1/C(=N/O)N[C@H]1Cc2ccc(F)cc21 (single isomer, unassigned) [Example 39]	7.45
C[S@@](=N)(=O)CCCOc1nonc1/C(=N/O)NC1Cc2ccc(F)cc21 (single isomer, unassigned) [Example 30]	6.42
CS(=N)(=O)CC12CC(Nc3nonc3/C(=N\O)N[C@@H]3Cc4ccc(F)cc43)(C1)C2 (single isomer, unassigned) [Example 83]	7.08
N=S(=O)(CCNc1nonc1/C(=N\O)N[C@@H]1Cc2ccc(F)cc21)C1CC1 (single isomer, unassigned) [Example 69]	7.31
CS(=N)(=O)N1CC(O)(CNc2nonc2/C(=N/O)N[C@H]2Cc3ccc(F)cc32)C1 (single isomer, unassigned) [Example 37]	6.51
CS(=N)(=O)CCCCOc1nonc1/C(=N/O)N[C@H]1Cc2ccc(F)cc21 (single isomer, unassigned) [Example 32]	6.62

* * *

- subject-of-test: UniProt P14902
- assay-info: IDO1 Enzyme Assay
- Format: biochemical
- particulars: HIS-tagged recombinant IDO1, fluorescence readout
Consider the cut-off 80 nM. If the recorded IC50 is strictly smaller, the label is t; if not, the label is f.

CS(=N)(=O)CCNC(=O)CNc1nonc1/C(=N/O)N[C@H]1Cc2ccc(F)cc21 (stereo partly drawn) [Example 12]	t
C[S@@](=N)(=O)CCNc1nonc1/C(=N/O)N[C@H]1Cc2ccc(F)cc21 [Example 2]	f
CS(=N)(=O)C1CC2(CC(Nc3nonc3/C(=N\O)N[C@@H]3Cc4ccc(F)cc43)C2)C1 (single isomer, unassigned) [Example 74]	t
N=S(=O)(CCNc1nonc1/C(=N\O)N[C@@H]1Cc2ccc(F)cc21)C1CC1 (single isomer, unassigned) [Example 68]	t
CS(=N)(=O)CC(O)CNc1nonc1/C(=N/O)N[C@H]1Cc2ccc(F)cc21 (single isomer, unassigned) [Example 29]	t
CS(=N)(=O)NCCOc1nonc1/C(=N/O)N[C@H]1Cc2ccc(F)cc21 (single isomer, unassigned) [Example 52]	f
CS(=N)(=O)N1CCC(Nc2nonc2/C(=N/O)N[C@H]2Cc3ccc(F)cc32)C1 (single isomer, unassigned) [Example 45]	f
CS(=N)(=O)N1CC(O)(CNc2nonc2/C(=N/O)N[C@H]2Cc3ccc(F)cc32)C1 (single isomer, unassigned) [Example 37]	f
CN=S(C)(=O)CCNc1nonc1/C(=N/O)N[C@H]1Cc2ccc(F)cc21 (single isomer, unassigned) [Example 34]	t
CS(=N)(=O)N1CCC(Nc2nonc2/C(=N/O)N[C@H]2Cc3ccc(F)cc32)C1 (single isomer, unassigned) [Example 46]	f
CON=[S@](C)(=O)CCNc1nonc1/C(=N/O)NC1Cc2ccc(F)cc21 (single isomer, unassigned) [Example 91]	t
CS(=N)(=O)N1CCC(Nc2nonc2/C(=N/O)N[C@H]2Cc3ccc(F)cc32)CC1 (single isomer, unassigned) [Example 19]	t
CS(=N)(=O)CCC(O)CNc1nonc1/C(=N\O)N[C@@H]1Cc2ccc(F)cc21 (single isomer, unassigned) [Example 78]	t
CS(=N)(=O)N1CCC(Nc2nonc2/C(=N/O)N[C@H]2Cc3ccc(F)cc32)C1 (single isomer, unassigned) [Example 44]	f
CC(O)CS(=N)(=O)CCNc1nonc1/C(=N\O)N[C@@H]1Cc2ccc(F)cc21 (single isomer, unassigned) [Example 84]	t
CS(=N)(=O)CC(O)CNc1nonc1/C(=N/O)N[C@H]1Cc2ccc(F)cc21 (single isomer, unassigned) [Example 28]	t
N=S1(=O)CC(Nc2nonc2/C(=N/O)N[C@H]2Cc3ccc(F)cc32)C1 (single isomer, unassigned) [Example 4]	f
